Source: patent US20260242478A1

- assay.target: T1, Anti-CD28 Fab (SEQ ID NOs: 696, 697)
- T1 construct: In the phage ELISA the Fab was biotinylated and captured on neutravidin coated plates
- T1 sequence (VH, as listed by the source, chain 1 of 2): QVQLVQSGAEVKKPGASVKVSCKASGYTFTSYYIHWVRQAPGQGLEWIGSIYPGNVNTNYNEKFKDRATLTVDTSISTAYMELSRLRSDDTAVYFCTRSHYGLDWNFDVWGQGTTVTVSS
- T1 sequence (VL, as listed by the source, chain 2 of 2): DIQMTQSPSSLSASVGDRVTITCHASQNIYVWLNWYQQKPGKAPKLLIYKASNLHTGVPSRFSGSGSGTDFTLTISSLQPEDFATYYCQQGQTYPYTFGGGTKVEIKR
- assay.protocol: phage ELISA on captured anti-CD28 Fab, wells pre-incubated with CD28 antigen as competitor;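 also: crude clonal phage supernatants added without washing, bound phage read out by HRP-coupled anti-M13 antibody, reference wells given blocking buffer only instead of CD28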
reported.metric: Anti-CD28 Fab signal in the presence of CD28 (phage binding ELISA)

Q: For the binder YCEGHSQQYMQKCL [Phage-1055] , what Anti-CD28 Fab signal in the presence of CD28 (phage binding ELISA) is on record?
Ans: 0.08

Q: // same read-out, input: YCDGHAPEYLGKCL [Phage-1059]
Ans: 0.06

Q: Repeat for the following binder: YCLGHSWPYIHKCY [Phage-1052]
Ans: 0.07

Q: Now this one: YCVGHLPQYMQKCL [Phage-1049]
Ans: 0.06

Q: Ok, now YCDGHSPAFIQKCL [Phage-1056]
Ans: 0.08

Q: Continue with YCDGHSLEYIDKCM [Phage-1057]
Ans: 0.09

Q: And for YCDGHLPEYIAKCQ [Phage-1050] ?
Ans: 0.07

Q: Now the same for YCDGHSLEYIEKCL [Phage-1051]
Ans: 0.06
